All figures here come from patent US20210284709A1.

target: T1, HLA-A2/E7(11-19) tetramer (human; HPV 16); test: flow cytometry, tetramer + anti-CD8; transfected mix of CD8- and CD8+ Jurkat-derived cells;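 note: cells transiently transfected with TCR-encoding plasmids, analysed 48 h afterwards by co-staining with HLA-A*02:01 peptide tetramer and anti-CD8 antibody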
T1 construct: also called E7(11-19) peptide-MHC tetramer; E7 tet
Output True for records whose % cells E7 tet+/CD8+ quadrant is lower than 6%, False for records at or above 6%.

TCR 46 (codon-optimized, cysteine-modified) (TCR, V domains shown) V domain 1: AQSVTQLDSQVPVFEEAPVELRCNYSSSVSVYLFWYVQYPNQGLQLLLKYLSGSTLVKGINGFEAEFNKSQTSFHLRKPSVHISDTAEYFCAVSPSSGTYKYIFGTGTRLKVLA V domain 2: GAGVSQTPSNKVTEKGKYVELRCDPISGHTALYWYRQSLGQGPEFLIYFQGTGAADDSGLPNDRFFAVRPEGSVSTLKIQRTERGDSAVYLCASSLYLGGSETQYFGPGTRLLVLE | True

IN: For TCR 43 (codon-optimized, cysteine-modified) (TCR, V domains shown) V domain 1: QKEVEQNSGPLSVPEGAIASLNCTYSDRGSQSFFWYRQYSGKSPELIMFIYSNGDKEDGRFTAQLNKASQYVSLLIRDSQPSDSATYLCAVNVPTSGTYKYIFGTGTRLKVLA V domain 2: EPEVTQTPSHQVTQMGQEVILRCVPISNHLYFYWYRQILGQKVEFLVSFYNNEISEKSEIFDDQFSVERPDGSNFTLKIRSTKLEDSAMYFCASTPRDSYEQYFGPGTRLTVTE , is the recorded % cells E7 tet+/CD8+ quadrant below the cut-off of 6%?
OUT: True

IN: For TCR 48 (codon-optimized, cysteine-modified) (TCR, V domains shown) V domain 1: QKEVEQDPGPLSVPEGAIVSLNCTYSNSAFQYFMWYRQYSRKGPELLMYTYSSGNKEDGRFTAQVDKSSKYISLFIRDSQPSDSATYLCAMRIQGAQKLVFGQGTRLTINP V domain 2: EPEVTQTPSHQVTQMGQEVILRCVPISNHLYFYWYRQILGQKVEFLVSFYNNEISEKSEIFDDQFSVERPDGSNFTLKIRSTKLEDSAMYFCASTGRVSYEQYFGPGTRLTVTE , is the recorded % cells E7 tet+/CD8+ quadrant below the cut-off of 6%?
OUT: True
